// IC50 lookup, one value per entry
# measured_target: KRAS G12D (Homo sapiens (Human), UniProt P01116+P62937, G12D)
# Sequence (P01116 other isoform, or with tags, fused parts or gaps G12D): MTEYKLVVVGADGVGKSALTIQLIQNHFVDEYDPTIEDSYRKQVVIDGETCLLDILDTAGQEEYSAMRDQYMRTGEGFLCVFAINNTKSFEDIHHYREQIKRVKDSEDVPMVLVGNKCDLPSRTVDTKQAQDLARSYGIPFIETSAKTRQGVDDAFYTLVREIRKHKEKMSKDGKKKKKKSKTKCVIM
# Sequence (P62937 whole entry): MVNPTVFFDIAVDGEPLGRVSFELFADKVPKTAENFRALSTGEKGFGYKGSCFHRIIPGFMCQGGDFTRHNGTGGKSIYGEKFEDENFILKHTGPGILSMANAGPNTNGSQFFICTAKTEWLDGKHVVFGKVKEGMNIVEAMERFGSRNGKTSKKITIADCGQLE
# assay_comment: Ras-Raf disruption/FRET/MOA assay (BRAF RBD, Cyclophilin A)
# Format: biochemical
# protocol_conditions: read-out: KRAS G12D FRET IC50

Examples with answers:
- smiles_record: "CCn1c(-c2cccnc2[C@H](C)OC)c2c3cc(ccc31)-c1csc(n1)C[C@H](NC(=O)[C@H](C(C)C)N(C)C(=O)N1[C@H](C)COC[C@@H]1C)C(=O)N1CCC[C@H](N1)C(=O)OCC(C)(C)C2"
  IC50: "1 to 10 µM"
- smiles_record: "CCn1c(-c2cccnc2[C@H](C)OC)c2c3cc(ccc31)-c1csc(n1)C[C@H](NC(=O)[C@H](C(C)C)N(C)C(=O)N1CC3(CCOCC3)C1)C(=O)N1CCC[C@H](N1)C(=O)OCC(C)(C)C2"
  IC50: "1 to 10 µM"
- smiles_record: "CCn1c(-c2cccnc2[C@H](C)OC)c2c3cc(ccc31)-c1csc(n1)C[C@H](NC(=O)[C@H](C(C)C)N(C)C(=O)N1CC([C@H](C)N(C)C)C1)C(=O)N1CCC[C@H](N1)C(=O)OCC(C)(C)C2"
  IC50: "0.1 to 1 µM"

Reported IC50 for CCn1c(-c2cccnc2[C@H](C)OC)c2c3cc(ccc31)-c1csc(n1)C[C@H](NC(=O)[C@H](C(C)C)N(C)C(=O)N1C3COCC1C3)C(=O)N1CCC[C@H](N1)C(=O)OCC(C)(C)C2 : what is it?
1 to 10 µM

###

// IC50 lookup, one value per entry
# Test system: NCI-H358 (K-Ras G12C)
# assay_comment: CellTiter-Glo cell viability assay, NCI-H358
# Format: cell-based, human
# protocol_conditions: Homo sapiens, NCI-H358, 120 h, read-out: H358 Cell Viability assay data (K-Ras G12C, IC50, uM), 5-day treatment

- smiles_record: "CCn1c(-c2cccnc2[C@H](C)OC)c2c3cc(ccc31)-c1csc(n1)C[C@H](NC(=O)[C@H](C(C)C)N(C)C(=O)N1CC3CC(C1)N3C)C(=O)N1CCC[C@H](N1)C(=O)OCC(C)(C)C2"
  measured_endpoint: "IC50"
  recorded_measurement: "0.1 to 1 µM"
- smiles_record: "CCn1c(-c2cccnc2[C@H](C)OC)c2c3cc(ccc31)-c1csc(n1)C[C@H](NC(=O)[C@H](C(C)C)N(C)C(=O)[C@H]1CCN(S(C)(=O)=O)C1)C(=O)N1CCC[C@H](N1)C(=O)OCC(C)(C)C2"
  measured_endpoint: "IC50"
  recorded_measurement: "< 0.01 µM"
- smiles_record: "C=CC(=O)N1CC[C@H](C(=O)N(C)[C@H](C(=O)N[C@H]2Cc3cc(O)cc(c3)-c3ccc4c(c3)c(c(-c3cc(C)cnc3[C@H](C)OC)n4CC)CC(C)(C)COC(=O)[C@@H]3CCCN(N3)C2=O)C(C)C)C1"
  measured_endpoint: "IC50"
  recorded_measurement: "< 0.01 µM"
- smiles_record: "CCn1c(-c2cccnc2[C@H](C)OC)c2c3cc(ccc31)-c1csc(n1)C[C@H](NC(=O)[C@H](C(C)C)N(C)C(=O)N1CCC[C@@H](N(C)C)CC1)C(=O)N1CCC[C@H](N1)C(=O)OCC(C)(C)C2"
  measured_endpoint: "IC50"
  recorded_measurement: "0.1 to 1 µM"

Turning now to a further compound:
Reported IC50 for C=CC(=O)N1CC[C@H](C(=O)N(C)[C@H](C(=O)N[C@H]2Cc3cc(O)cc(c3)-c3ccc4c(c3)c(c(-c3ccc(CC(=O)O)nc3)n4CC)CC(C)(C)COC(=O)[C@@H]3CCCN(N3)C2=O)C(C)C)C1 : what is it?
> 10 µM
